Ref: patent US7202244B2

IC50, CHK-1 (Homo sapiens, UniProt O14757): measured values
EXPERIMENTAL READOUT: IC50 (nM)

# SMILES NOTATION, TARGET SYSTEM, OUTPUT UNIT, MEASURED VALUE
rows = [
    ("NCCCOc1ccc(Cl)cc1NC(=O)Nc1cnc2ccccc2n1", "CHK-1 (Homo sapiens, UniProt O14757)", "nM", 5),
    ("Cc1cnc(NC(=O)Nc2cc(Cl)ccc2OCCCN)cn1", "CHK-1 (Homo sapiens, UniProt O14757)", "nM", 4),
    ("CN(C)CCOc1ccc(Cl)cc1NC(=O)Nc1cnccn1", "CHK-1 (Homo sapiens, UniProt O14757)", "nM", 8),
    ("COc1cncc(NC(=O)Nc2cc(Cl)ccc2OCCCN)n1", "CHK-1 (Homo sapiens, UniProt O14757)", "nM", 20),
]
